test system: oxidation of ABTS to ABTS^•+ radical cation by metmyoglobin; assay: In vitro anti-oxidant assay: inhibition of metmyoglobin-mediated oxidation of ABTS to ABTS•+ (absorbance at 750 nm); type: biochemical; conditions: 0-500 μM compound; 15 μM ABTS, 2.5 μM metmyoglobin, 80 μM hydrogen peroxide, room temperature
measuredEndpoint: IC50

Specify measured IC50 for CC1(C)CC(OCCCCCC(O)/C=C/C(=O)O)CC(C)(C)N1O (stereo not shown) [[^14C]Compound 14] .
~10 µM

Origin of values: patent US20090253745A1
